Hello, the source for this data is patent US11384078B2, in case you need it.

Tested on: L. donovani HU3 strain in mouse peritoneal macrophages
Assay: Assay for inhibition of parasitemia of Leishmania donovani in mouse macrophages (SYBR Green nuclei count, high-content imaging)
Type: cell-based
Settings: Leishmania donovani, Peritoneal macrophage, L. donovani in mouse peritoneal macrophages; read-out: L. donovani in Mouse Macrophages EC50
Give measured EC50 for each item. Keep answers brief.
Answers are plain numbers, in µM.

# annotated cases, reported EC50 shown
O=C(Nc1ccc(F)c(-n2cc3cc(C4CCOCC4)cnc3n2)c1)N1CC[C@@H](F)C1 ... 0.025
CCOC1CC1C(=O)Nc1ccc(F)c(-n2cc3cc(C(C)C)cnc3n2)c1 (centres unmarked) ... 2.06
O=C(Nc1ccc(F)c(-n2cc3cc(N4CC(F)C4)cnc3n2)c1)C1CC1 ... 1.21

Batch of 2 compounds: report EC50 for each.
1. CC(C)c1cnc2nn(-c3cc(NC(=O)c4ccccn4)ccc3F)cc2c1
2. CN(C)c1cnc2nn(-c3cc(NC(=O)N4CC(F)C4)ccc3F)cc2c1

[A]
[0.31, 0.0082]

Batch of 8 compounds: report EC50 for each.
1. CC(C)c1cnc2nn(-c3cc(NC(=O)CC4CC4)ccc3F)cc2c1
2. CC(C)CCc1cnc2nn(-c3cc(NC(=O)N4CCC4)ccc3F)cc2c1
3. O=C(Nc1ccc(F)c(-n2cc3cc(NC4CC4)cnc3n2)c1)N1CC(F)C1
4. O=C(Nc1ccc(F)c(-n2cc3cc(N4CCNCC4)cnc3n2)c1)N1CC(F)C1
5. O=C(Nc1ccc(F)c(-n2cc3cc(C4CCN(Cc5ccc(F)cc5)CC4)cnc3n2)c1)N1CC(F)C1
6. O=C(Nc1ccc(F)c(-n2cc3cc(-c4ccccn4)cnc3n2)c1)N1CC(F)C1
7. O=C(Nc1ccc(F)c(-n2cc3cc(N4CC5(CCOC5)C4)cnc3n2)c1)N1CC(F)C1
8. O=C(Nc1ccc(F)c(-n2cc3cc(-c4ncccc4Cl)cnc3n2)c1)N1CCC1

[A]
1: 0.15; 2: 0.023; 3: 0.125; 4: 2.17; 5: 0.003; 6: 0.002; 7: 0.01; 8: 0.002

Batch of 2 compounds: report EC50 for each.
1. O=C(Nc1ccnc(-n2cc3cc(N4CC(F)(F)C4)cnc3n2)c1)N1CCC1
2. O=C(O)C1CCN(c2cnc3nn(-c4cc(NC(=O)N5CC(F)C5)ccc4F)cc3c2)CC1

[A]
0.028
29.7

Batch of 2 compounds: report EC50 for each.
1. CNc1cnc2nn(-c3cc(NC(=O)c4ccco4)ccc3F)cc2c1
2. Cc1cccnc1-c1cnc2nn(-c3cc(NC(=O)c4oc(CO)nc4C)ccc3F)cc2c1

[A]
[0.32, 1.87]
